Hey, just so you know, these numbers are from patent US20140212382A1.

Assay: Cytotoxicity assay, PBM cells
Assay type: cell-based
Conditions: human; PBM
experimental endpoint: CC50

CCOC(=O)[C@H](C)NP(=O)(OC[C@H]1O[C@@H](n2cnc3c(N)nc(N)nc32)C(C)(O)C1O)Oc1ccccc1 (some centres unmarked) [drawing 53]    > 100 µM

Data point: CCOC(=O)CCc1ccccc1OP(=O)(N[C@H](C)C(=O)OCC)OC[C@H]1O[C@@H](n2cnc3c(N)nc(N)nc32)C(C)(O)C1O (some centres unmarked) [drawing 54] ; CC50 = > 100 µM

* * *

Experiment: Cytotoxicity assay, PBM cells
Format: cell-based
Settings: human, PBM cells
experimental endpoint: CC50

# CC50 (molecule: CC1(O)C(O)[C@@H](CO)O[C@H]1n1cnc2c(N)nc(N)nc21 (stereo partly shown) [drawing 52] ) is > 100 µM

* * *

Experiment: Cytotoxicity assay, CEM cells
Type: cell-based
Settings: human, CEM lymphoblastoid cells
experimental endpoint: CC50

Lab note: CC1(O)C(O)[C@@H](CO)O[C@H]1n1cnc2c(N)nc(N)nc21 (stereo partly shown) [drawing 52] gave CC50 of > 100 µM

* * *

# Lookup of reported CC50 at 5 day keyed by entry
Experiment: Cytotoxicity in HCV replicon assay (ΔCt rRNA)
Format: cell-based
Conditions: human, Huh 7 Clone B cells containing HCV replicon RNA, HCV Replicon (Huh7)

CC1(O)C(O)[C@@H](CO)O[C@H]1n1cnc2c(N)nc(N)nc21 (some centres unmarked) [drawing 55]    > 10 µM

Attention now shifts to the item below.
Looking up CC(C)OC(=O)CCNC(=O)[C@@H]1OP(=O)(OC[C@H]2O[C@@H](n3cnc4c(N)nc(N)nc43)C(C)(O)C2O)OCC1(C)C (some centres unmarked) , I found its CC50 at 5 day recorded as > 10 µM
